# Tested on: Plasmodium berghei
# METHOD: Screen against P. berghei liver stage (PbLuc), transformed with Luciferase, at 10uM
# Type: functional, HepG2
# TEST_SETTINGS: tested at 10 uM
About 8,600 (12%) of roughly 69,000 compounds showed an effect of 50% or more. For the sample, strong results were picked, then their nearest neighbours and some compounds at random.
Define the label as met when INHIBITION is strictly less than 40% and as not met in all remaining cases.

{"columns": ["COMPOUND", "ASSAYED_TARGET", "LABEL_CLASS"],
 "data": [
  ["NC(=O)c1ccc(NC(=O)N2CCN(c3cccs3)CC2)c(F)c1", "Plasmodium berghei", "not met"],
  ["CCCN1CCC(N2CCC(Cn3cc(C4CC4)nn3)CC2)CC1", "Plasmodium berghei", "not met"],
  ["O=C(Nc1ccc(-n2cccn2)cc1)N1CCC(O)C1 (stereo unspecified)", "Plasmodium berghei", "not met"],
  ["Cc1cc(CN2C[C@@H]3COC[C@@H](C(=O)N4CCCCO4)[C@@H]3C2)oc1C", "Plasmodium berghei", "met"],
  ["O=C(c1ccc(CN2CCCCC2)cc1)N1Cc2cnn(CCO)c2C1", "Plasmodium berghei", "met"],
  ["O=C(Nc1ccc(-n2cccn2)cc1)N1CCOCC(O)C1 (stereo unspecified)", "Plasmodium berghei", "not met"],
  ["CC(C)(O)CCc1ccc(C(=O)N2CCN(CCS(C)(=O)=O)CC2)cc1", "Plasmodium berghei", "met"],
  ["CCC(NC(=O)C1CC1)c1ccccc1OCC(=O)N1CCCC1 (stereo unspecified)", "Plasmodium berghei", "met"],
  ["NC(=O)C1CCN(CC(=O)NCCn2cc(Cl)cn2)CC1", "Plasmodium berghei", "not met"],
  ["Cc1cc(C)c2c(N3CCC(C(=O)N4CCOCC4)CC3)ncnc2n1", "Plasmodium berghei", "met"]
]}

---

Quick reference for INHIBITION among some molecules
# Test system: Plasmodium berghei
# METHOD: Screen against P. berghei liver stage (PbLuc), transformed with Luciferase, at 10uM
# Assay type: functional, HepG2
# TEST_SETTINGS: tested at 10 uM
The campaign covered roughly 69,000 compounds. About 8,600 (12%) showed an effect of 50% or more. The sample as a whole holds a higher share of strong results than the screen did.
METRIC: INHIBITION (%)

{"columns": ["MOLECULE", "ASSAYED_TARGET", "VALUE_OBSERVED"],
 "data": [
  ["CCn1cc(-c2nccnc2C2CCCN(C(C)=O)C2)cn1 (stereo unspecified)", "Plasmodium berghei", -14.2],
  ["CN(Cc1ccc(-n2ccnc2)cc1)CC1CCCN1c1cccnn1 (stereo unspecified)", "Plasmodium berghei", -12.1],
  ["CCNc1nc2cn(-c3cccc(OC)c3)c(=O)c-2c[nH]1", "Plasmodium berghei", -76.4],
  ["Cc1ccc(CN2Cc3nnn(C)c3C(COCC(=O)N(C)C)C2)s1 (stereo unspecified)", "Plasmodium berghei", 42.1],
  ["COCCN1C[C@@H]2CC[C@H]1CN(CC(=O)Nc1ccn(C)n1)C2", "Plasmodium berghei", 21.2],
  ["CCN(CC)C(=O)c1c(Br)cnn1CC", "Plasmodium berghei", 29.3]
]}

---

# Test system: Plasmodium berghei
# METHOD: Screen against P. berghei liver stage (PbLuc), transformed with Luciferase, at 10uM
# Assay type: functional, HepG2
# TEST_SETTINGS: tested at 10 uM
About 8,600 (12%) of roughly 69,000 compounds showed an effect of 50% or more. Shown is part of a subset that was picked to be rich in strong results.
Is INHIBITION at least 50%? Then 1 (yes). If not, 0 (no).

{"columns": ["MOLECULE", "LABEL_CLASS"],
 "data": [
  ["CC(C)CN1CCCn2nc(CNC(=O)CN3CCOC3=O)cc2C1", "0 (no)"],
  ["O=C(c1ccc[nH]1)N1Cc2nccn2CC(COc2cccnc2)C1 (stereo unspecified)", "0 (no)"],
  ["CCN(CCO)C[C@@H]1CN(c2nc(C)cc(C)n2)C[C@@H]1CO", "1 (yes)"],
  ["CCN(CCO)C[C@@H]1CN(C(=O)c2ccc(C)s2)C[C@@H]1CO", "1 (yes)"],
  ["O=C1CN(C(=O)OCc2ccccc2)CC(O)CN1Cc1ccco1 (stereo unspecified)", "0 (no)"],
  ["Cc1c(C(=O)N2C[C@@H](CN(C)CCO)[C@@H](CO)C2)sc2ccccc12", "0 (no)"]
]}
